- tested on: T1, GST-FLJ 10324 PDZ domain 1 [GST: P08515]
- T1 chain: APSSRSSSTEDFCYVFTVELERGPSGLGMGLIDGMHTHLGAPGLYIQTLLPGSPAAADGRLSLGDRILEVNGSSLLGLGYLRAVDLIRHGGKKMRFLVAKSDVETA
- test details: G assay titration, PDZ 5 ug/ml
pKd: −log10 of the molar value.

[
  {
    "binder": "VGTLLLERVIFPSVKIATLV (modifications not checked) [AdenoE4 typ9]",
    "pKd": 7.00
  },
  {
    "binder": "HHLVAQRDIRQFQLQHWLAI (modifications not checked) [noradrenaline transporter]",
    "pKd": 6.22
  }
]
